# system: hT1R1/hT1R3 umami receptor expressed in an HEK293 cell line (Homo sapiens, UniProt Q7RTX0+Q7RTX1)
# Construct: expressed in transfected cells; host or cells: HEK293 derivative, clone I-17, expression induced with mifepristone
# experiment_description: Umami taste enhancement activity assay (EC50 ratio vs. MSG)
# Format: cell-based
# condition_label: compound @ 3 μM
measured_quantity: EC50 ratio (vs. MSG)
Hey, just send me the number, nothing else.

Answered cases to consult:
{"given_smiles": "O=C(OCCCn1ncc2ccccc2c1=O)c1cccs1", "measured_quantity": "EC50 ratio (vs. MSG)", "result_value": 3.8}
{"given_smiles": "c1ccc2sc(SCc3cn4ccsc4n3)nc2c1", "measured_quantity": "EC50 ratio (vs. MSG)", "result_value": 3.6}
{"given_smiles": "O=C(OCCCc1nc2ccccc2[nH]1)c1cccs1", "measured_quantity": "EC50 ratio (vs. MSG)", "result_value": 4.4}
{"given_smiles": "O=C(SCc1ccccn1)c1ccccc1", "measured_quantity": "EC50 ratio (vs. MSG)", "result_value": 6.5}

// next item, EC50 ratio (vs. MSG) requested
Q: Item under review: COc1ccc(CNc2nc3ccccn3n2)cc1 . Reported EC50 ratio (vs. MSG)?
Ans: 3.6

====

# system: hT1R2/hT1R3 sweet receptor expressed in an HEK293 cell line (Homo sapiens, UniProt Q7RTX0+Q8TE23)
# Construct: expressed in transfected cells; host or cells: HEK293 derivative, clone S-9
# Sequence (Q8TE23 20-839, one chain of several): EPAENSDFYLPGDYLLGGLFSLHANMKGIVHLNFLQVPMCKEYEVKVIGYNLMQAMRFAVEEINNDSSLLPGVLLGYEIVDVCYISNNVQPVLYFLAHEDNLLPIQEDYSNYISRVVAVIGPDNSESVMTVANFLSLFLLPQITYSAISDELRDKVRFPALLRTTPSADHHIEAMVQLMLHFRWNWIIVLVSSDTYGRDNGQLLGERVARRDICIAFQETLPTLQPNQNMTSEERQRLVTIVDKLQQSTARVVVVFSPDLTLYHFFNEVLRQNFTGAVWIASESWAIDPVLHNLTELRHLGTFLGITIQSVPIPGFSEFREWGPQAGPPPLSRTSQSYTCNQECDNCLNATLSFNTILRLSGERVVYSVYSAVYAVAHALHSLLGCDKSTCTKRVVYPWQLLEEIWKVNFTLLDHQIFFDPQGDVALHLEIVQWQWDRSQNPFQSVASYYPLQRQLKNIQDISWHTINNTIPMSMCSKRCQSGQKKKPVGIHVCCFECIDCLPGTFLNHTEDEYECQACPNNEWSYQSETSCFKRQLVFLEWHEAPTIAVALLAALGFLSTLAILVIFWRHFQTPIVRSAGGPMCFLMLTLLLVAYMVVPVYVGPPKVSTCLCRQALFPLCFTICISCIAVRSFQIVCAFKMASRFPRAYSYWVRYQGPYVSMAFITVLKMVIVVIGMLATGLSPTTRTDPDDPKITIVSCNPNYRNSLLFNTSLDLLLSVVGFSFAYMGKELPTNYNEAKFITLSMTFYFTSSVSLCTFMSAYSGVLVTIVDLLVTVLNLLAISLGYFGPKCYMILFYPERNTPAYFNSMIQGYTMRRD
# experiment_description: In vitro hT1R2/hT1R3 sweet taste receptor activation assay (FLIPR, dose response)
# Type: cell-based
# condition_label: read-out: Sweet EC50
measured_quantity: pEC50
Here pEC50 is given on a logarithmic scale as minus log10 of the concentration in mol/L.

{"given_smiles": "COc1ccc(NC(=S)NCc2ccc[nH]2)c(C)c1", "result_value": 5.28}
{"given_smiles": "CCn1cccc1CNC(=S)Nc1ccc(OC(C)C)cc1", "result_value": 5.89}
{"given_smiles": "CCCCc1ccc(NC(=S)NCc2ccc[nH]2)cc1", "result_value": 5.22}

Q: Data request, read-out pEC50, for S=C(NCc1ccoc1)Nc1ccc2c(c1)OCO2
Ans: 4.94

Q: Return reported pEC50; argument: CCOc1ccc(NC(=S)NCc2ccc(C)o2)cc1
Ans: 5.72

Q: Entry S=C(NCc1ccc[nH]1)Nc1ccc2c(c1)OCCO2 has what pEC50?
Ans: 6.51

Q: Item OCCSc1ccc(NC(=S)NCc2ccc[nH]2)cc1 has what recorded pEC50?
Ans: 5.07

Q: Which pEC50 is listed for CCCCOc1ccc(S(=O)(=O)Nc2cccnc2)cc1 ?
Ans: 5.66

Q: Would you kindly share the measured pEC50 for O=S(=O)(NCc1ccncc1)c1ccc(F)cc1 ?
Ans: 5.19

Q: What value of pEC50 has been reported for the following compound? FC(F)(F)c1ccc(NC(=S)NCc2ccc[nH]2)c(Cl)c1
Ans: 6.17

====

Listed here: items and their measured EC50.
# system: hT1R1/hT1R3 umami receptor expressed in an HEK293 cell line (Homo sapiens, UniProt Q7RTX0+Q7RTX1)
# Construct: expressed in transfected cells; host or cells: HEK293 derivative, clone I-17, expression induced with mifepristone
# Sequence (Q7RTX1 21-841): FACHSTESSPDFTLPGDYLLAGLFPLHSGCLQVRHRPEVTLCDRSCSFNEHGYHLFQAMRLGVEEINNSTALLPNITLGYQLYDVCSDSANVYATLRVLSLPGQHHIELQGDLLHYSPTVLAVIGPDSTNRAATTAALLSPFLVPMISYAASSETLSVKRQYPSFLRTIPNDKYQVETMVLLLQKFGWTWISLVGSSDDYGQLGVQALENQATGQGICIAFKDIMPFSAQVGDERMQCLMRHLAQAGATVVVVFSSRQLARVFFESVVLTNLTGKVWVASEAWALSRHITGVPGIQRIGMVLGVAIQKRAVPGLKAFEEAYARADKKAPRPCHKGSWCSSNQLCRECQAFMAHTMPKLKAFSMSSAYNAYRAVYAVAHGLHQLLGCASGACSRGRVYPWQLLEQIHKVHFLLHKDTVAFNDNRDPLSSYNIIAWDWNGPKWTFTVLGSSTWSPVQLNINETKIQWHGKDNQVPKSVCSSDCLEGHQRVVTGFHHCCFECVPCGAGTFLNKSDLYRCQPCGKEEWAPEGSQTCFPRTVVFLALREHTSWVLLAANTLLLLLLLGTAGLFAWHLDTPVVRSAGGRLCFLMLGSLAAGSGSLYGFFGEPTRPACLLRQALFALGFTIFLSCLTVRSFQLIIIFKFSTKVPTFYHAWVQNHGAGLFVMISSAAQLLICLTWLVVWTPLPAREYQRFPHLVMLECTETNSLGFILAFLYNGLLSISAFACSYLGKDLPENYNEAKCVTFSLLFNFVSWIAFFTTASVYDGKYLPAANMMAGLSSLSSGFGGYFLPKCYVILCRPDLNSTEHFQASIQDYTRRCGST
# Sequence (Q7RTX0 21-852): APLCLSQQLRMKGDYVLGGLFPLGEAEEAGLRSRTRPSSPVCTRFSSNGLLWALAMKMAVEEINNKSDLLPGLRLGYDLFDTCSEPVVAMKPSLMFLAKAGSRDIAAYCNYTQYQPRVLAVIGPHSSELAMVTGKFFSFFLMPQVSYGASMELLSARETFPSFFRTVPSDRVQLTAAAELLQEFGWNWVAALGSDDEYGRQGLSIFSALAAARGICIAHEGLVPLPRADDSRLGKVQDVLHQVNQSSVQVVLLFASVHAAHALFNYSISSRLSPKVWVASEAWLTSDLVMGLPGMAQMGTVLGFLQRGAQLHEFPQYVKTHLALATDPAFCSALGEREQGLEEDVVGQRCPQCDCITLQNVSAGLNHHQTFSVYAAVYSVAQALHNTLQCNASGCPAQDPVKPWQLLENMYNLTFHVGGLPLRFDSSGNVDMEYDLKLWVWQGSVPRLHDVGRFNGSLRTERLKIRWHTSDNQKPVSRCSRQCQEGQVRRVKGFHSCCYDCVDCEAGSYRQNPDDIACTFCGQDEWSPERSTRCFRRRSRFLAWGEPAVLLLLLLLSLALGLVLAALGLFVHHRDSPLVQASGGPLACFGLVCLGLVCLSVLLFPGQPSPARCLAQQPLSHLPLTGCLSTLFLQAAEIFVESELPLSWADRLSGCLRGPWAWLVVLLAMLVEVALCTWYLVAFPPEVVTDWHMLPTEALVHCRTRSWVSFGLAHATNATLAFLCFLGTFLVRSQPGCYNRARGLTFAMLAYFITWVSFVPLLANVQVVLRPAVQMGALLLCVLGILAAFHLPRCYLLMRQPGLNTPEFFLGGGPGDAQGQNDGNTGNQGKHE
# experiment_description: In vitro hT1R1/hT1R3 umami taste receptor activation assay (FLIPR, dose response)
# Type: cell-based
# condition_label: read-out: Umami EC50
Quick note: give the figure in µM, leave out the unit.

Q: Could you share which EC50 value was measured for CC(C)Oc1ccc(NC(=S)NCc2ncc[nH]2)cc1 ?
Ans: 14.5

Q: For the compound COc1ccc(CNc2nc3ccccn3n2)cc1 , what EC50 is on record?
Ans: 11.8

Q: Form field: reported EC50 of O=C(OCCCc1nc2ccccc2[nH]1)c1cccs1
Ans: 3.5

Q: May I ask what EC50 has been recorded for CC(C)(C)c1ccc(NC(=S)NCCc2ccccn2)cc1 ?
Ans: 1.92

Q: Quick check: EC50 of CSc1ccc(NC(=S)NCCc2ccccn2)cc1 ?
Ans: 3.26

Q: What does the data say about its EC50? Entry: S=C(NCCc1ccccn1)Nc1cccc(Cl)c1
Ans: 4.53

====

# system: hT1R2/hT1R3 sweet receptor expressed in an HEK293 cell line (Homo sapiens, UniProt Q7RTX0+Q8TE23)
# Construct: expressed in transfected cells; host or cells: HEK293 derivative, clone S-9
# experiment_description: In vitro hT1R2/hT1R3 sweet taste receptor activation assay (FLIPR, dose response)
# Format: cell-based
# condition_label: read-out: Sweet EC50
measured_quantity: EC50 (nM)
A number alone suffices; assume nM.

Take a look at these entries with their results.
{"given_smiles": "C=Cc1ccc(NC(=S)NCc2ccc[nH]2)cc1", "result_value": 870}
{"given_smiles": "COc1ccc(S(=O)(=O)Nc2ccc3nn(C)cc3c2)cc1", "result_value": 2940}
{"given_smiles": "FC(F)(F)Oc1ccc(NC(=S)NCc2ccc[nH]2)cc1", "result_value": 590}

# context switch: different molecule, same EC50
Q: Field request: EC50 | item: COC(=O)COc1ccc(S(=O)(=O)Nc2ccc3c(c2)OCCO3)cc1
Ans: 7970

====

EC50 by entry:
# system: hT1R2/hT1R3 sweet receptor expressed in an HEK293 cell line (Homo sapiens, UniProt Q7RTX0+Q8TE23)
# Construct: expressed in transfected cells; host or cells: HEK293 derivative, clone S-9
# experiment_description: In vitro hT1R2/hT1R3 sweet taste receptor activation assay (FLIPR, dose response)
# Assay type: cell-based
# condition_label: read-out: EC50 for activation of a hT1R2/hT1R3 sweet receptor
Report only the number, with the unit nM understood.

Here is how some compounds turned out for EC50.
{"given_smiles": "COc1ccc(CNc2ccccc2C)cc1O", "result_value": 2980}
{"given_smiles": "CC(C)c1ccc(NC(=S)NCc2ccoc2)cc1", "result_value": 750}
{"given_smiles": "CC(C)Oc1ccc(NC(=S)NCc2ccc[nH]2)cc1", "result_value": 25}
{"given_smiles": "COc1ccc(CNc2cc(C)ccc2C)cc1O", "result_value": 2580}
{"given_smiles": "COc1ccc(CNc2ccc(F)cc2C)cc1O", "result_value": 2290}

// switching to the query compound
Q: Tell me the measured EC50 of CC(C)Oc1ccc(NC(=S)NCc2ccccc2)cc1 , please.
Ans: 1000
